Values compiled from paper PMC7717620.

Test system: human cardiomyocytes
test summary: cellular accumulation and metabolism in human cardiomyocytes
Format: in vitro ADME
condition set: 10 μM, 8 h
measured property: Intracellular concentration in human cardiomyocytes: Prodrugs (pmol/10^6 cells)
Hi! Could you send only the number? It should be in pmol/10^6 cells, unit omitted.

* CC(C)(CO)C(=O)SCCOP(=O)(NCc1ccccc1)OC[C@H]1O[C@@H](n2cnc3c(=O)[nH]c(N)nc32)[C@](C)(O)[C@@H]1O (mixture of isomers) [IDX-184] | 9.8

Lab book: Intracellular concentration in human cardiomyocytes: Prodrugs of CC(C)OC(=O)[C@H](C)N[P@](=O)(OC[C@H]1O[C@@H](n2ccc(=O)[nH]c2=O)[C@](C)(F)[C@@H]1O)Oc1ccccc1 [Sofosbuvir, sofosbuvir] noted as 42

Intracellular concentration in human cardiomyocytes: Prodrugs reported for this compound CC(C)OC(=O)CCc1ccccc1OP(=O)(N[C@@H](C)C(=O)OC(C)C)OC[C@H]1O[C@@H](n2cnc3c(N)nc(N)nc32)[C@](C)(O)[C@@H]1O (stereo partly shown) [DAPN-PD] : 51

Reported Intracellular concentration in human cardiomyocytes: Prodrugs ( COc1nc(N)nc2c1ncn2[C@@H]1O[C@H](COP(=O)(N[C@@H](C)C(=O)OCC(C)(C)C)Oc2cccc3ccccc23)[C@@H](O)[C@@]1(C)O (stereo partly shown) [BMS-986094] ) = 810
